koff for assorted binders
# study.target: T1, human OPGbp [143-317] (human, UniProt O14788 143-317)
# T1 construct: also called OPGL
# T1 sequence (looked up): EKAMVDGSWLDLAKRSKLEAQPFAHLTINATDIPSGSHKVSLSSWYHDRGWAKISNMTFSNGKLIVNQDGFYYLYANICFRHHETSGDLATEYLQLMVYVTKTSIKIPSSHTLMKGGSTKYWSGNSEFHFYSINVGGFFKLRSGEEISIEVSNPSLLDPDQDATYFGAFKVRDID
# assay.protocol: SPR (BIAcore), immobilized OPGbp [143-317]
measured.attribute: koff

binder | result
“AT” antibody variant S96Y (heavy chain CDR3) (antibody, name in Kabat numbering, V domains shown, not shown: human IgG1 CH1, hinge, CH2 and CH3) VH: QVQLVQSGAEVRKPGASVKVSCKASGYDFSNYAIHWVRQAPGQRLEWMGWINAGNGNTKFSQKFQGRITVTRDTAASTAYMELRSLRSEDTAVYYCARDYSNMVRGIIIAYYFDYWGQGTLVTVSS VL: EIVMTQSPSSLSASVGDRVTITCRASQSISRYLNWYQLKPGKAPRLLIYGASSLQSGVPSRFSGSGSGAEFTLTISSLQPEDIATYYCQHTRAFGQGTKVEIKR | 0.00185 s⁻¹
“AT” antibody variant S96I (heavy chain CDR3) (antibody, name in Kabat numbering, V domains shown, not shown: human IgG1 CH1, hinge, CH2 and CH3) VH: QVQLVQSGAEVRKPGASVKVSCKASGYDFSNYAIHWVRQAPGQRLEWMGWINAGNGNTKFSQKFQGRITVTRDTAASTAYMELRSLRSEDTAVYYCARDISNMVRGIIIAYYFDYWGQGTLVTVSS VL: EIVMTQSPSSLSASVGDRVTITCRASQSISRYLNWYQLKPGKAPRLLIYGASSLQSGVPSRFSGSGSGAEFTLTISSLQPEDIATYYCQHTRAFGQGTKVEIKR | 0.00466 s⁻¹
